Can you tell me half-life for the items I'm about to list?
assay: In vitro stability in mouse liver microsome; type: in vitro ADME; details: liver microsomes, read-out: Mouse liver microsome t1/2
Give bare numbers, in h.

{"columns": ["COMPOUND", "QUANTITY_UNIT", "half-life"],
 "data": [
  ["Cc1nn(-c2cncc(F)c2)c(C)c1-c1cc(N2CCOC[C@H]2C)nc(-c2cc(F)cc3[nH]ccc23)n1 [Compound A11]", "h", 2.23]
]}

Pending compound:
If you can, please state the reported half-life value of Cc1nn(-c2cncc(F)c2)c(C)c1-c1cc(N2CCOC[C@H]2C)nc(-c2cccc3[nH]ccc23)n1 [Compound A17] . 1.02

----------
Field: IC50. Provide a value for each of the compounds that follow.
test system: MV4-11 (leukemia); experiment: Cell proliferation inhibition in vitro, CellTiter-Glo, MV4-11; type: cell-based; details: Homo sapiens; MV4-11 cells, 120 hours, CellTiter-Glo; read-out: MV4-11/IC50/μM
Give bare numbers, in µM.

As a guide, the following entries are already answered.
{"columns": ["COMPOUND", "IC50 (µM)"],
 "data": [
  ["Cc1nn(-c2cncc(C(F)F)c2)c(C)c1-c1cc(N2CCOC[C@H]2C)nc(-c2ccnc3[nH]ccc23)n1", 0.332],
  ["Cc1nn(-c2cncc(F)c2)c(C)c1-c1cc(N2CCOC[C@H]2C)nc(-c2ccnc3[nH]ccc23)n1", 0.312],
  ["CNc1nc2ccccc2n1-c1nc(-c2c(C)nn(-c3cncc(F)c3)c2C)cc(N2CCOC[C@H]2C)n1", 0.231],
  ["Cc1nn(-c2cncc(F)c2)c(C)c1-c1cc(N2CCOC[C@H]2C)nc(-c2cc(CO)cc3[nH]ccc23)n1", 0.169],
  ["Cc1nn(-c2ccncc2)c(C)c1-c1cc(N2CCOC[C@H]2C)nc(-c2cc(F)cc3[nH]ccc23)n1", 0.635],
  ["Cc1nn(-c2cncc(F)c2)c(C)c1-c1cc(C23CCOCC2C3)nc(-c2cccc3[nH]ccc23)n1 (stereo not drawn)", 0.632]
]}

State the recorded IC50 for every item in the following list.
1. Cc1ncccc1-n1nc(C)c(-c2cc(N3CCOC[C@H]3C)nc(-c3cc(F)cc4[nH]ccc34)n2)c1C
2. CNc1nc2ccccc2n1-c1nc(-c2c(C)nn(-c3cncc(Cl)c3)c2C)cc(N2CCOC[C@H]2C)n1
3. Cc1nn(-c2cnccc2F)c(C)c1-c1cc(N2CCOC[C@H]2C)nc(-c2cc(F)cc3[nH]ccc23)n1

0.382
0.303
0.231

----------
biological target: ATR kinase (Homo sapiens); assay: Assay of ATR kinase activity (time-resolved fluorescence, phosphorylation of p53-derived protein); format: biochemical
Sequence (Q13535 whole entry): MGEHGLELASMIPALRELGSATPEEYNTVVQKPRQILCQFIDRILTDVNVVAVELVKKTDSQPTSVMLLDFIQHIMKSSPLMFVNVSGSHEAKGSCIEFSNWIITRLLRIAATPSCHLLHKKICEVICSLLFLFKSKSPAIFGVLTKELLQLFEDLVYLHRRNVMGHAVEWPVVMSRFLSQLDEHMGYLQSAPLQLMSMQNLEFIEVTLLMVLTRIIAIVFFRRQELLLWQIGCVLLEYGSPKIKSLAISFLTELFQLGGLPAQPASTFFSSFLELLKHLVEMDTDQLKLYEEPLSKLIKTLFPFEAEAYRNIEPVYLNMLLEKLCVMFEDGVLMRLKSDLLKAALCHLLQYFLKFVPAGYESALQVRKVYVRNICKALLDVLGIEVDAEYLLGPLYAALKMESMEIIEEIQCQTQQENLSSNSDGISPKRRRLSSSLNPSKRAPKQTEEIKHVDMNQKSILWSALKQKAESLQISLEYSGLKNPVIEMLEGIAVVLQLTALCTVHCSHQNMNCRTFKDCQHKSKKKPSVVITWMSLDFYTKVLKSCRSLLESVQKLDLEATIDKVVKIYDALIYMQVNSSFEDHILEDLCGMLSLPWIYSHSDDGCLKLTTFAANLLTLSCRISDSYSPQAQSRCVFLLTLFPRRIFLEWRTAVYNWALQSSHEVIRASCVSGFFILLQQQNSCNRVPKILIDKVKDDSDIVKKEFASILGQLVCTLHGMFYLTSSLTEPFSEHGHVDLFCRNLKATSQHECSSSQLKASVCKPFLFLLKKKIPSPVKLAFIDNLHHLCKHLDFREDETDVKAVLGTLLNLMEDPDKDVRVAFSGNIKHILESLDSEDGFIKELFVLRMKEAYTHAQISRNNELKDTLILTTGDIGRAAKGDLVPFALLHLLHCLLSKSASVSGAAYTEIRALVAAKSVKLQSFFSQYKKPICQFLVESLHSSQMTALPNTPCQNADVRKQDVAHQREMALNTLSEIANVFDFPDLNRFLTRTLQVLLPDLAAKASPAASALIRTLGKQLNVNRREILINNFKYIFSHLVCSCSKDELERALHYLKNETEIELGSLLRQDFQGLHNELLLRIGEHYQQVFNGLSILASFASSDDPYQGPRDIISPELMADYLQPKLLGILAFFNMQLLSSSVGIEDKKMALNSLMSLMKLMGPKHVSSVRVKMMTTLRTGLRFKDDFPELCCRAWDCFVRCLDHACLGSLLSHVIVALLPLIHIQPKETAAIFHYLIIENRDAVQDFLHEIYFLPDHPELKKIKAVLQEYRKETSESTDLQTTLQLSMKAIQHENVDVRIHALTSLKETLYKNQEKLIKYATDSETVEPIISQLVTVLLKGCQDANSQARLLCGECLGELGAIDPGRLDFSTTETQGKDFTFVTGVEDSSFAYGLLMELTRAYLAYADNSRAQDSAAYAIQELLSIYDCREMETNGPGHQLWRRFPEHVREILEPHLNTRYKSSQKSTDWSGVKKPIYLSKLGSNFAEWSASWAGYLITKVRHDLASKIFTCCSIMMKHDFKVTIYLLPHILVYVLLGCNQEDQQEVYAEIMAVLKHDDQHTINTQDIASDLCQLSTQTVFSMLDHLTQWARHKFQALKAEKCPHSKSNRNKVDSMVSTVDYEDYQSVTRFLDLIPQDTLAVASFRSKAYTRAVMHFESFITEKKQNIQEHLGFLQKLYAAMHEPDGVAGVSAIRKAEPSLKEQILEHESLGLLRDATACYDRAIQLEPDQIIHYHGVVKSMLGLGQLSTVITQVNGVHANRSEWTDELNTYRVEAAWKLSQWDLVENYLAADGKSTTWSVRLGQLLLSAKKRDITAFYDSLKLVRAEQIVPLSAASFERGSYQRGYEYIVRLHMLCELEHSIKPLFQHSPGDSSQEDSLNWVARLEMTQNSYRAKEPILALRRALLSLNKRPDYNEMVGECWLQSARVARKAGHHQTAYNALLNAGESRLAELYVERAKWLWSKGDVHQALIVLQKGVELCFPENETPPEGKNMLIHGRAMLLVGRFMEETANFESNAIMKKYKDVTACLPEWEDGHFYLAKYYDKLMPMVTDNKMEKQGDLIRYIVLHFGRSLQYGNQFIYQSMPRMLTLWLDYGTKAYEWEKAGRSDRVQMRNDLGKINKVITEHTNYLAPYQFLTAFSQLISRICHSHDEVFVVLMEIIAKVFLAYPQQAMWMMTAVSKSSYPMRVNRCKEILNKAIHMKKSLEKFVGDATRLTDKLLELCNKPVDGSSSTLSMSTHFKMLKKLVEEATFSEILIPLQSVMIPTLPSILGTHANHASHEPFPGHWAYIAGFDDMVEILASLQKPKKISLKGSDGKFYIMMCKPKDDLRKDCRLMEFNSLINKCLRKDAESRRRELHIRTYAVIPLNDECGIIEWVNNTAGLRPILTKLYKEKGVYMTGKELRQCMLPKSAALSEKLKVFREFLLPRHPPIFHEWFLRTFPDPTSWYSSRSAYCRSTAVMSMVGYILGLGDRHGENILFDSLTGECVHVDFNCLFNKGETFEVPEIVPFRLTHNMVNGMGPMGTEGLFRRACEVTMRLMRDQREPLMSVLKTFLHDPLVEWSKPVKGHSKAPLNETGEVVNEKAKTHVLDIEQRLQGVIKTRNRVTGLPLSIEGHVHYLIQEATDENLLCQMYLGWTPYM
Sequence (Q8WXE1 whole entry partner): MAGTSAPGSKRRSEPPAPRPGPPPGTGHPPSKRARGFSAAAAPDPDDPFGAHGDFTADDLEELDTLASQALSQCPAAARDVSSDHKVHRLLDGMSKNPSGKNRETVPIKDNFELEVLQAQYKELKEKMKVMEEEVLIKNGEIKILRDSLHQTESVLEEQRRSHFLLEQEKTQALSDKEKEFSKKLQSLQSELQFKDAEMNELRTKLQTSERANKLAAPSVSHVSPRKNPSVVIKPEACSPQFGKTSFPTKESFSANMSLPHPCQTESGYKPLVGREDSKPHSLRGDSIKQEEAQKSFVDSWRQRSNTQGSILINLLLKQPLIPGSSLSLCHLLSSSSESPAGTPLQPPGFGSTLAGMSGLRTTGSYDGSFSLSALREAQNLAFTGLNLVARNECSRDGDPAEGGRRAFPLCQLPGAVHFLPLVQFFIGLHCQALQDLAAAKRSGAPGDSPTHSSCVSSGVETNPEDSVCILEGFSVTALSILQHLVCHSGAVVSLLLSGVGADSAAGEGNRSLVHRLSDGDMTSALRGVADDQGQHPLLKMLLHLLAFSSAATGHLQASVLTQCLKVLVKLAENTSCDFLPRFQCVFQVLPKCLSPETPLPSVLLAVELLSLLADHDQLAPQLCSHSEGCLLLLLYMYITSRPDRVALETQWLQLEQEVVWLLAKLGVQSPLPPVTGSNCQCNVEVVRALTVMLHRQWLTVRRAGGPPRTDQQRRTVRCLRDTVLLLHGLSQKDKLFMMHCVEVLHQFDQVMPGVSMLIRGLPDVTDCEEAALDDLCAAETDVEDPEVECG
MEASURED_ENDPOINT: IC50 (nM)
Answers are plain numbers, in nM.

// for each compound below, give its IC50
1. Cc1nn(-c2cncc(F)c2)c(C)c1-c1cc(N2CCOC[C@H]2C)nc(-c2ccnc3[nH]ccc23)n1
2. Cc1nn(-c2cncc(F)c2)c(C)c1-c1cc(N2CCOC[C@H]2C)nc(-c2cc(F)cc3[nH]ccc23)n1

1. 2
2. 10

// input: 3 compounds below; output: IC50 for each
1. Cc1nn(-c2cccnc2)c(C)c1-c1cc(N2CCOC[C@H]2C)nc(-c2cc(F)cc3[nH]ccc23)n1
2. Cc1nn(-c2cccnn2)c(C)c1-c1cc(N2CCOC[C@H]2C)nc(-c2cc(F)cc3[nH]ccc23)n1
3. CNc1nc2ccccc2n1-c1nc(-c2c(C)nn(-c3cnc(N)c(F)c3)c2C)cc(N2CCOC[C@H]2C)n1

10
1
16

----------
assay: In vivo oral administration pharmacokinetics in mice; design: concentration or dose not given beside the values; details: mouse
AUC under 2000 ng·h/mL gets Fulfilled, anything at or over 2000 ng·h/mL gets Not fulfilled.

Past entries and their recorded results:
{"columns": ["MOLECULE", "ANSWER_LABEL"],
 "data": [
  ["CNc1nc2ccccc2n1-c1nc(-c2c(C)nn(-c3cncc(F)c3)c2C)cc(N2CCOC[C@H]2C)n1 [Compound B1]", "Not fulfilled"],
  ["Cc1nn(-c2cncc(F)c2)c(C)c1-c1cc(N2CCOC[C@H]2C)nc(-c2cc(F)cc3[nH]ccc23)n1 [Compound A11]", "Not fulfilled"],
  ["Cc1nn(-c2cncc(F)c2)c(C)c1-c1cc(N2CCOC[C@H]2C)nc(-c2ccnc3[nH]ccc23)n1 [Compound A19]", "Fulfilled"],
  ["Cc1nn(-c2cncc(F)c2)c(C)c1-c1cc(N2CCOC[C@H]2C)nc(-c2cccc3[nH]ccc23)n1 [Compound A17]", "Not fulfilled"]
]}

Here is another molecule to look at.
Quick check: does Cc1nn(-c2cncc(F)c2)c(C)c1-c1cc(N2CCOC[C@H]2C)nc(-c2cc(CO)cc3[nH]ccc23)n1 [Compound A22] have AUC under 2000 ng·h/mL? Fulfilled

----------
Test system: MV4-11 (leukemia)
Assay: Cell proliferation inhibition in vitro, CellTiter-Glo, MV4-11
Assay type: cell-based
Conditions: Homo sapiens; MV4-11 cells, 120 hours, CellTiter-Glo; read-out: MV4-11/IC50/μM
Description: By detecting the effect of compounds on cell activity in vitro in tumor cell lines TOV21G (ovarian cancer) and MV4-11 (leukemia), the inhibitory effect of compounds on cell proliferation was studied in this assay. […] MV-4-11 cells were cultured in IMDM medium (containing 20% of FBS). […] 100 μL of solution was transferred from each well to a 96-well blank plate, and the luminescence value was read by Biotek Synergy HI multifunctional microplate reader. […]
MEASURED_ENDPOINT: IC50 (µM)
One number for each entry, in µM.

{"columns": ["COMPOUND", "ASSAY_VALUE"],
 "data": [
  ["Cc1nn(-c2ccc(=O)[nH]c2)c(C)c1-c1cc(N2CCOC[C@H]2C)nc(-c2cc(F)cc3[nH]ccc23)n1 [Compound A7]", 0.1]
]}

Kindly give each listed record's IC50.
1. Cc1nn(-c2cncc(F)c2)c(C)c1-c1cc(N2CCOC[C@H]2C)nc(-c2cccc3[nH]ccc23)n1 [Compound A17]
2. Cc1nn(-c2cncc(F)c2)c(C)c1-c1cc(N2CCOC[C@H]2C)nc(-c2cc(F)cc3[nH]ccc23)n1 [Compound A11]

[0.19, 0.214]

Requested read-out: IC50. Entry: Cc1nn(-c2cncc(F)c2)c(C)c1-c1cc(C23CCOCC2C3)nc(-c2cc(F)cc3[nH]ccc23)n1 (stereo not shown) [Compound C2] 0.896

----------
Would you kindly list IC50 for each of these molecules?
test system: TOV21G (ovarian cancer); experiment: Cell proliferation inhibition in vitro, CellTiter-Glo, TOV21G; format: cell-based; details: Homo sapiens; TOV21G cells, 120 hours, CellTiter-Glo; read-out: TOV21G/IC50/μM
One number for each entry, in µM.

{"columns": ["STRUCTURE_STRING", "MEASURED_ENDPOINT", "QUANTITY_UNIT", "ASSAY_VALUE"],
 "data": [
  ["Cc1nn(-c2cccnn2)c(C)c1-c1cc(N2CCOC[C@H]2C)nc(-c2cc(F)cc3[nH]ccc23)n1", "IC50", "µM", 0.166],
  ["CNc1nc2ccccc2n1-c1nc(-c2c(C)nn(-c3cccnc3)c2C)cc(N2CCOC[C@H]2C)n1", "IC50", "µM", 0.483],
  ["CNc1nc2ccccc2n1-c1nc(-c2c(C)nn(-c3ccc(C#N)nc3)c2C)cc(N2CCOC[C@H]2C)n1", "IC50", "µM", 0.278]
]}

Parameter requested: IC50. Apply to each item below.
1. CNc1nc2ccccc2n1-c1nc(-c2c(C)nn(-c3cncc(C#N)c3)c2C)cc(N2CCOC[C@H]2C)n1
2. Cc1c(-c2cc(N3CCOC[C@H]3C)nc(-c3ccnc4[nH]ccc34)n2)c(C(F)(F)F)nn1-c1cncc(F)c1

1. 0.306
2. 0.284

Go through the items and report each one's IC50.
1. Cc1nn(-c2ccc(=O)[nH]c2)c(C)c1-c1cc(N2CCOC[C@H]2C)nc(-c2cc(F)cc3[nH]ccc23)n1
2. Cc1nn(-c2cnccn2)c(C)c1-c1cc(N2CCOC[C@H]2C)nc(-c2cc(F)cc3[nH]ccc23)n1

[0.33, 0.53]

Parameters: items (list). Returns: IC50 for each item.
1. Cc1nn(-c2cncc(C#N)c2)c(C)c1-c1cc(N2CCOC[C@H]2C)nc(-c2cc(F)cc3[nH]ccc23)n1
2. Cc1nn(-c2cnccc2F)c(C)c1-c1cc(N2CCOC[C@H]2C)nc(-c2cc(F)cc3[nH]ccc23)n1
3. Cc1nn(-c2cncc(F)c2)c(C)c1-c1cc(N2CCOC[C@H]2C)nc(-c2ccnc3[nH]ccc23)n1
4. CNc1nc2ccccc2n1-c1nc(-c2c(C)nn(-c3cncc(F)c3)c2C)cc(N2CCOC[C@H]2C)n1
5. Cc1nn(-c2cncc(Cl)c2)c(C)c1-c1cc(N2CCOC[C@H]2C)nc(-c2ccnc3[nH]ccc23)n1

1. 0.28
2. 0.522
3. 0.237
4. 0.194
5. 0.208
